Reference source: ChEMBL document CHEMBL4002541

Give pEC50 for every item shown.
# Experimental target: UniProtKB P49286
# Protocol text: Agonist activity at human MT2 receptor expressed in CHO cells after 1 hr by [35S]GTPgammaS binding assay
# Type: functional, cell-based
Give bare numbers, as −log10 of the molar value.

CCC(=O)NC[C@@H](CO)c1cccc2ccc(OC)cc12 :: 8.13

Respectfully, I request pEC50 for each entry included below.
1. COc1ccc2cccc([C@H](CO)CNC(=O)CF)c2c1
2. COc1ccc2cccc(C(CO)CNC(=O)CF)c2c1 (racemic)
3. COc1ccc2cccc(C(CO)CNC(C)=O)c2c1 (stereo unspecified)
4. COc1ccc2cccc(C(CO)CNC(=O)C(F)F)c2c1 (stereo unspecified)
5. CCC(=O)NCC(CO)c1cccc2ccc(OC)cc12 (racemic)

Key:
1. 7.60
2. 9.20
3. 6.84
4. 9.43
5. 8.56

---

# Experimental target: Melatonin receptor type 1A (Homo sapiens, UniProt P48039)
# Sequence (P48039 whole entry): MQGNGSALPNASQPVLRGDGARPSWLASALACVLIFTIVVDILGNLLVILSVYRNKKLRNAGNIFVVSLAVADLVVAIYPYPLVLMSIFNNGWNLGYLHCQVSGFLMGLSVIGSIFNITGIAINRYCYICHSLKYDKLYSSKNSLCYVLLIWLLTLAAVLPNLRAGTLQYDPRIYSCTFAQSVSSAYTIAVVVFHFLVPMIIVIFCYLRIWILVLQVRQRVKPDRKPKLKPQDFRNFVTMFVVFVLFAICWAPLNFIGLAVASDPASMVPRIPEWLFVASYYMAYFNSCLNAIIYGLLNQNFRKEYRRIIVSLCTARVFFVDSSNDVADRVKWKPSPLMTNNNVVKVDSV
# Protocol text: Agonist activity at human MT1 receptor expressed in CHO cells after 1 hr by [35S]GTPgammaS binding assay
# Format: functional, cell-based
Quantity measured: EC50 (nM)
Numbers only, in nM.

CCC(=O)NC[C@@H](CO)c1cccc2ccc(OC)cc12 :: 389
CCC(=O)NCC(CO)c1cccc2ccc(OC)cc12 (racemic) :: 49
COc1ccc2cccc(C(CO)CNC(C)=O)c2c1 (stereo unspecified) :: 72.4
COc1ccc2cccc(C(CO)CNC(=O)C(F)F)c2c1 (stereo unspecified) :: 10.2
COc1ccc2cccc([C@H](CO)CNC(=O)CF)c2c1 :: 1050

Exercise: Which EC50 is reported for this molecule? COc1ccc2cccc(C(CO)CNC(=O)CF)c2c1 (racemic)
Key: 25.1

---

# Experimental target: Melatonin receptor type 1B (Homo sapiens, UniProt P49286)
# Sequence (P49286 whole entry): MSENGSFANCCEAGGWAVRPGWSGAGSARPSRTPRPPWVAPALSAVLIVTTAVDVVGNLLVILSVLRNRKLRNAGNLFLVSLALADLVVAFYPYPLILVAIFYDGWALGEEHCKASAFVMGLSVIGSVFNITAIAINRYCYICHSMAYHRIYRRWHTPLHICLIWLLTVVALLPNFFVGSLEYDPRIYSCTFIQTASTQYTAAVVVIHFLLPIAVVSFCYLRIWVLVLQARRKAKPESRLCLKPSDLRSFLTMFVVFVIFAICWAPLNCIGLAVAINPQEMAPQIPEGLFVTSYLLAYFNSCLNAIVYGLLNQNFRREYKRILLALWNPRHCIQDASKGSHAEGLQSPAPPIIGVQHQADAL
# Protocol text: Displacement of 2-[125I]Iodomelatonin from human MT2 receptor expressed in CHO cell membranes after 120 mins
Quantity measured: Ki (nM)
Numbers only, in nM.

Examples from the recorded data:
COc1ccc2cccc(C(CO)CNC(C)=O)c2c1 (stereo not drawn) :: 13.8
COc1ccc2cccc(C(CO)CNC(=O)CF)c2c1 (racemic) :: 0.537
COc1ccc2cccc(C(CO)CNC(=O)C(F)F)c2c1 (stereo not drawn) :: 0.347
COc1ccc2cccc([C@H](CO)CNC(=O)CF)c2c1 :: 52.5
CCC(=O)NC[C@H](CO)c1cccc2ccc(OC)cc12 :: 0.316
CCC(=O)NCC(CO)c1cccc2ccc(OC)cc12 (racemic) :: 2.95
CCC(=O)NC[C@@H](CO)c1cccc2ccc(OC)cc12 :: 5.5

Consider the additional molecule presented here.
Exercise: Which Ki is reported for this molecule? COc1ccc2cccc([C@@H](CO)CNC(=O)CF)c2c1
Key: 0.977

---

// each record: one item and its pKi for 5-hydroxytryptamine receptor 2C (Homo sapiens, UniProt P28335)
Answers are plain numbers, as −log10 of the molar value.

Examples from the recorded data:
CCC(=O)NC[C@H](CO)c1cccc2ccc(OC)cc12 :: 6.38
CCC(=O)NCC(CO)c1cccc2ccc(OC)cc12 (racemic) :: 6.15
COc1ccc2cccc(C(CO)CNC(=O)CF)c2c1 (racemic) :: 6.78
COc1ccc2cccc([C@@H](CO)CNC(=O)CF)c2c1 :: 6.73
COc1ccc2cccc(C(CO)CNC(C)=O)c2c1 (stereo not drawn) :: 6.64

Consider the additional molecule presented here.
Exercise: Which pKi is reported for this molecule? COc1ccc2cccc(C(CO)CNC(=O)C(F)F)c2c1 (stereo not drawn)
Key: 6.16
